Assay: Single dose pharmacokinetics (SAD), Example B14
Assay type: in vivo, human
Conditions: human, plasma, oral; single dose 160 mg; geometric mean
Excerpt: Accordingly, a study was designed to assess the PK of Compound 5 after a single dose and following a 6-day course of doses, at levels exceeding the dosages used in preceding Examples B12 and B13. This study was designed to assess at these higher doses aspects of the single-dose and steady-state pharmacokinetics of Compound 5. This study was a single-center, randomized, double-blind, ascending dose, placebo-controlled study in healthy participants. […]
measurement type: Cmax (µg/mL)
The reply should be a number in µg/mL, with the unit left off.

Q) Give the measured Cmax of COCCN(CCCCc1ccc2c(n1)NCCC2)CC[C@H](Nc1ncnc2ccccc12)C(=O)O .
A) 2.48

###

Experiment: Single dose pharmacokinetics (SAD), Example B14
Type: in vivo, human
Conditions: human, oral; single dose 320 mg, plasma total drug; geometric mean
Description: Accordingly, a study was designed to assess the PK of Compound 5 after a single dose and following a 6-day course of doses, at levels exceeding the dosages used in preceding Examples B12 and B13. This study was designed to assess at these higher doses aspects of the single-dose and steady-state pharmacokinetics of Compound 5. This study was a single-center, randomized, double-blind, ascending dose, placebo-controlled study in healthy participants. […]
measurement type: half-life (h)
Please respond with the number in h and leave the unit unwritten.

Q) What value of measured half-life is listed for COCCN(CCCCc1ccc2c(n1)NCCC2)CC[C@H](Nc1ncnc2ccccc12)C(=O)O ?
A) 40.7

###

assay: Plasma PK, Example B15 Part 1; format: in vivo; settings: human, 160 mg QD, Day 7, geometric mean, initial results
measurement type: Cmax (ng/mL)
Supply the numeric figure in ng/mL, leaving out any unit text.

Q) Could you share which Cmax value was measured for COCCN(CCCCc1ccc2c(n1)NCCC2)CC[C@H](Nc1ncnc2ccccc12)C(=O)O ?
A) 2990

###

experiment: Single dose pharmacokinetics (SAD), Example B14; format: in vivo, human; conditions: human, plasma, oral; single dose 320 mg; geometric mean
measurement type: Cmax (ng/mL)
Record the value in ng/mL, omitting the unit from your answer.

Q) Fill in: Cmax of COCCN(CCCCc1ccc2c(n1)NCCC2)CC[C@H](Nc1ncnc2ccccc12)C(=O)O is ___
A) 6390

###

assay: Multiple dose pharmacokinetics (MAD), Example B14; type: in vivo; details: human, plasma, oral; 240 mg daily, Day 7; geometric mean
measurement type: Cmax (µg/mL)
Report only the number, with the unit µg/mL understood.

Q) Fill blank: measured Cmax of the compound COCCN(CCCCc1ccc2c(n1)NCCC2)CC[C@H](Nc1ncnc2ccccc12)C(=O)O is ____.
A) 5.14

###

test: Multiple dose pharmacokinetics (MAD), Example B14; format: in vivo; details: human, plasma, oral; 80 mg daily, Day 7; geometric mean; read-out: T1/2 (converted)
measurement type: half-life

Q) Need half-life, item COCCN(CCCCc1ccc2c(n1)NCCC2)CC[C@H](Nc1ncnc2ccccc12)C(=O)O
A) 36.1 h

###

assay: Plasma PK, Example B15 Part 1; assay type: in vivo; details: human, 160 mg QD, Day 7, geometric mean, initial results, read-out: AUC0-24, ng × h/mL
measurement type: AUC(0-t) (ng·h/mL)
Give your result in ng·h/mL as a bare value.

Q) Requested read-out: AUC(0-t). Entry: COCCN(CCCCc1ccc2c(n1)NCCC2)CC[C@H](Nc1ncnc2ccccc12)C(=O)O
A) 49900

###

test: Plasma PK, Example B15 Part 1; format: in vivo; conditions: human, 80 mg QD, Day 7, geometric mean, initial results, read-out: AUC0-24, ng × h/mL
measurement type: AUC(0-t) (ng·h/mL)
Write the value in ng·h/mL as a bare number.

Q) Look up AUC(0-t): COCCN(CCCCc1ccc2c(n1)NCCC2)CC[C@H](Nc1ncnc2ccccc12)C(=O)O [Compound 5]
A) 25400

###

experiment: Multiple dose pharmacokinetics (MAD), Example B14; assay type: in vivo; conditions: human, plasma, oral; 160 mg daily, Day 7, two cohorts pooled; geometric mean; read-out: T1/2 (converted)
measurement type: half-life (h)
The answer is to be given in h; state only the numeric part.

Q) What value of half-life has been recorded for this entry: COCCN(CCCCc1ccc2c(n1)NCCC2)CC[C@H](Nc1ncnc2ccccc12)C(=O)O [Compound 5]
A) 41.7

###

assay: Multiple dose pharmacokinetics (MAD), Example B14; type: in vivo; settings: human, plasma, oral; 80 mg daily, Day 7; geometric mean
measurement type: Cmax

Q) Which Cmax reading was recorded for the compound COCCN(CCCCc1ccc2c(n1)NCCC2)CC[C@H](Nc1ncnc2ccccc12)C(=O)O [Compound 5] ?
A) 1850 ng/mL

###

assay: Multiple dose pharmacokinetics (MAD), Example B14; assay type: in vivo; settings: human, plasma, oral; 120 mg daily, Day 7; geometric mean
measurement type: Cmax (ng/mL)
Could you give me the number in ng/mL? Just the number is fine.

Q) Could you share which Cmax value was measured for COCCN(CCCCc1ccc2c(n1)NCCC2)CC[C@H](Nc1ncnc2ccccc12)C(=O)O [Compound 5] ?
A) 4040

###

experiment: Multiple dose pharmacokinetics (MAD), Example B14; format: in vivo; details: human, plasma, oral; 160 mg daily, Day 7, two cohorts pooled; geometric mean
measurement type: Cmax (ng/mL)
Express the result in ng/mL but write the number alone.

Q) Which Cmax value belongs to COCCN(CCCCc1ccc2c(n1)NCCC2)CC[C@H](Nc1ncnc2ccccc12)C(=O)O ?
A) 3790

###

Assay: Single dose pharmacokinetics (SAD), Example B14
Assay type: in vivo, human
Details: human, plasma, oral; single dose 320 mg; median
Description: Accordingly, a study was designed to assess the PK of Compound 5 after a single dose and following a 6-day course of doses, at levels exceeding the dosages used in preceding Examples B12 and B13. This study was designed to assess at these higher doses aspects of the single-dose and steady-state pharmacokinetics of Compound 5. This study was a single-center, randomized, double-blind, ascending dose, placebo-controlled study in healthy participants. […]
measurement type: Tmax (h)
Number only, in h; omit the unit.

Q) Can you share its Tmax? I mean this molecule: COCCN(CCCCc1ccc2c(n1)NCCC2)CC[C@H](Nc1ncnc2ccccc12)C(=O)O [Compound 5]
A) 4

###

target: recombinant human integrin αvβ6 (Homo sapiens, UniProt P06756+P18564); assay: Solid phase integrin αvβ6 binding assay; conditions: read-out: αvβ6 Inhibition IC50 (nM) - range
Sequence (P06756 31-992 limits assumed): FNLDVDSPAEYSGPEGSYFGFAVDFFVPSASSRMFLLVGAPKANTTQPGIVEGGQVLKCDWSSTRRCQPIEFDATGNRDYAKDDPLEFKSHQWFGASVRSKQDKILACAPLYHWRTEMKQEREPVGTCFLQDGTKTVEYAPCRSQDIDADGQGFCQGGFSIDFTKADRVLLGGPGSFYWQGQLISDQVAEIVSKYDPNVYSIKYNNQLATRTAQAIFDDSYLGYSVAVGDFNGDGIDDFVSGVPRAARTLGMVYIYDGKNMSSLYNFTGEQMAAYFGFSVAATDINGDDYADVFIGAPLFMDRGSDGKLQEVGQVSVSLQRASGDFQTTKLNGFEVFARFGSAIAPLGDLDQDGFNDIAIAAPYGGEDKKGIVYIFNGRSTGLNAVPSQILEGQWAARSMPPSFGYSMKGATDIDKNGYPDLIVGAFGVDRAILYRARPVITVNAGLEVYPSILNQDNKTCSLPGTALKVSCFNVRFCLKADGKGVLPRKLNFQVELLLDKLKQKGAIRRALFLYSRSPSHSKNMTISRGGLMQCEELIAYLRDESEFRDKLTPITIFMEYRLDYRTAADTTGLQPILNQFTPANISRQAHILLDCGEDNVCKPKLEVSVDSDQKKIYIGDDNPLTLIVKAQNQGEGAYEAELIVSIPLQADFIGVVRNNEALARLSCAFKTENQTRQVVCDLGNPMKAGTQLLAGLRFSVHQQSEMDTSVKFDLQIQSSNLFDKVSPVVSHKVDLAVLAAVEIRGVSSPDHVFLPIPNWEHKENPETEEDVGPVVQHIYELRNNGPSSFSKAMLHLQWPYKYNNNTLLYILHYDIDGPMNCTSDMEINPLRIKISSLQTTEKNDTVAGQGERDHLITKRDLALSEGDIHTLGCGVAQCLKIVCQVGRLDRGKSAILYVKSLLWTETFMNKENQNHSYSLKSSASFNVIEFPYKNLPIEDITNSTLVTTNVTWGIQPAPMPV
Sequence (P18564 22-707 limits assumed): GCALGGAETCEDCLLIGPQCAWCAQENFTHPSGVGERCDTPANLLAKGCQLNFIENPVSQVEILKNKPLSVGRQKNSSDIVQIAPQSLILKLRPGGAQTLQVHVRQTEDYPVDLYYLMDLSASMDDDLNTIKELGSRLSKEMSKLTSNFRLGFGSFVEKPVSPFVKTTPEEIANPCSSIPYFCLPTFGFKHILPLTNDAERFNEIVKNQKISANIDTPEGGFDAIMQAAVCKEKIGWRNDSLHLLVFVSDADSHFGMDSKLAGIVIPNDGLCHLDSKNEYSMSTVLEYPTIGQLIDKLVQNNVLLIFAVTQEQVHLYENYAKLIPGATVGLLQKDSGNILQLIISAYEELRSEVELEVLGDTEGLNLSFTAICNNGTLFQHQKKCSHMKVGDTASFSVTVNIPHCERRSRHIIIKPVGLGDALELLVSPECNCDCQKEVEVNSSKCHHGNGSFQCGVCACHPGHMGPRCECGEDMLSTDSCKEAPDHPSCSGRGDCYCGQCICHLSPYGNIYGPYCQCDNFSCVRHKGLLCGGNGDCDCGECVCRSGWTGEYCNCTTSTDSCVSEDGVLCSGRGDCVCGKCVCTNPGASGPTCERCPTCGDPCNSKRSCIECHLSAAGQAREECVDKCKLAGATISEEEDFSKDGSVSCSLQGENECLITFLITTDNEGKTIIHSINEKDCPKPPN
measurement type: IC50

Example cases with answers are listed next.
# compound, measurement type, value measured
records = [
    ("O=C(O)[C@H](CCN(CCCCc1ccc2c(n1)NCCC2)C1CC1)Nc1ccncn1", "IC50", "250 to 1000 nM"),
    ("COC[C@@H](F)CN(CCCCc1ccc2c(n1)NCCC2)CC[C@H](Nc1cc(-c2ccccc2)ncn1)C(=O)O", "IC50", "> 1000 nM"),
    ("O=C(O)[C@H](CCN(CCCCc1ccc2c(n1)NCCC2)CCC(F)F)Nc1ncc(C2CC2)cn1", "IC50", "50 to 250 nM"),
    ("CO[C@H](C)CN(CCCCc1ccc2c(n1)NCCC2)CC[C@H](Nc1ncc(C#N)cn1)C(=O)O", "IC50", "< 50 nM"),
    ("CO[C@H](C)CN(CCCCc1ccc2c(n1)NCCC2)CC[C@H](Nc1ncncc1-c1ccccc1)C(=O)O", "IC50", "< 50 nM"),
]

Q) Entry CO[C@@H](C)CN(CCCCc1ccc2c(n1)NCCC2)CC[C@H](Nc1ncnc2ccccc12)C(=O)O has what IC50?
A) < 50 nM

###

biological target: recombinant human integrin αvβ6 (Homo sapiens, UniProt P06756+P18564); assay: Solid phase integrin αvβ6 binding assay; settings: read-out: αvβ6 Inhibition IC50 (nM) - range
measurement type: IC50

Q) What IC50 value was documented for this compound, COCCN(CCCCc1ccc2c(n1)NCCC2)CC[C@H](Nc1cc(-n2cccn2)ncn1)C(=O)O ?
A) < 50 nM

Q) # get_value(readout='IC50', item= COCCN(CCCCc1ccc2c(n1)NCCC2)CC[C@H](Nc1nccc2ccccc12)C(=O)O )
A) > 1000 nM

Q) Could you tell me which IC50 is on file for CO[C@H](C)CN(CCCCc1ccc2c(n1)NCCC2)CC[C@H](Nc1ncc(C2CC2)cn1)C(=O)O ?
A) < 50 nM
